assay target: full-length human PKCι (Homo sapiens)
Construct: Recombinant, full-length human PKCι expressed in Sf21 insect cells is also commercially available; purchased; host or cells: Sf21 insect cells
Sequence (P41743 whole entry): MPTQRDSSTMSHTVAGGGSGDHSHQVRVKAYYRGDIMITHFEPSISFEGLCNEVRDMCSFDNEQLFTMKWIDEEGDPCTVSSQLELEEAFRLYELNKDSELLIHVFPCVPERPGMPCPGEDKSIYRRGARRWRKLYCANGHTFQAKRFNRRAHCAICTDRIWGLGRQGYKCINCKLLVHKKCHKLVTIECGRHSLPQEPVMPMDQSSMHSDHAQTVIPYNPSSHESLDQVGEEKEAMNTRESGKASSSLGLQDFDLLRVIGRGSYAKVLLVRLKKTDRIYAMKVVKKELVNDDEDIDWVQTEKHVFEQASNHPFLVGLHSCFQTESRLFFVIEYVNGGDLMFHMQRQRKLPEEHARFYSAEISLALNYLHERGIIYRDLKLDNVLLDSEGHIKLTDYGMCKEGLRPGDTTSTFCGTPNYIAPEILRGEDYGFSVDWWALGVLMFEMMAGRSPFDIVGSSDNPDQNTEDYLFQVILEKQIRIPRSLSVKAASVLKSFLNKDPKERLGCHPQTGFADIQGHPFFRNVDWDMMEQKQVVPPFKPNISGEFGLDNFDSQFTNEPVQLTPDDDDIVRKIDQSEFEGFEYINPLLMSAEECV
protocol notes: PKCι IC50 IMAP fluorescence polarisation assay, full-length enzyme
Type: biochemical
test context: full length PKCi at 15 μM ATP; read-out: IC50 in IMAP assay against full length PKCi
Please go through the items and note down their IC50.

Example cases with answers are listed next.
CC(C)(C)c1sc2c(NC[C@@H](N)Cc3ccccc3)nc(-c3ccncc3)nc2c1-c1ccoc1; 10000 to 40000 nM
O[C@H]1CNC[C@@H]1Nc1nc(-c2ccncc2)nc2ccsc12; 1000 to 10000 nM
Cc1c(Br)sc2c(N[C@@H]3CCNC3)nc(-c3ccncc3)nc12; 100 to 1000 nM
c1ccc(Nc2cc(-c3nc(N[C@@H]4CCNC4)c4sccc4n3)ccn2)cc1; 1000 to 10000 nM
C[C@H](Nc1cc(-c2nc(N[C@@H]3CCNC3)c3sccc3n2)ccn1)c1ccccc1; 100 to 1000 nM

# return IC50 for each item in the list
1. Brc1csc2c(N3CCNCC3)nc(-c3ccncc3)nc12
2. Cn1cc(-c2csc3c(NC[C@@H](N)Cc4ccccc4)nc(-c4ccncc4)nc23)cn1
3. N[C@H](CNc1nc(-c2ccncc2)nc2c(C#Cc3ccccc3)csc12)Cc1ccccc1
4. COC/C=C/c1csc2c(NC[C@@H](N)Cc3ccccc3)nc(-c3ccncc3)nc12

Reply:
1. 100 to 1000 nM
2. 1000 to 10000 nM
3. 100 to 1000 nM
4. 100 to 1000 nM

Reference for the values: patent US10183950B2
